- assay_target: purified recombinant human HSF1 (HSF1 DNA binding domain) (Homo sapiens, UniProt Q00613)
- experiment: Melting temperature of HSF1 DBD with HSF1 degrader compounds (Sypro orange)
- experimental_parameters: 12.5 micromolar compound, 5 micromolar HSF1 DBD, compared to DMSO; read-out: ΔTm (° C.)
recorded_metric: ΔTm at 12.5 µM (°C)

A: N#Cc1cnc(NC(=O)Nc2ccc3c(c2)S(=O)(=O)C=C3)cn1
B: N#Cc1ccc(NC(=O)Nc2ccc(C#N)cc2)cc1
**Query** Endpoint returns whichever of A and B has the numerically higher ΔTm at 12.5 µM. Write down the label of the entry you select.
**Result** B
(B: 1.91 °C, A: 0.39 °C)

---

- assay_target: recombinant HSF1 DNA-binding domain (DBD) (Homo sapiens, UniProt Q00613)
- experiment: Differential Scanning Fluorimetry (DSF), HSF1 DBD melting temperature
- experimental_parameters: Table 1; 5 μM HSF1 DBD, 25PM Compound; positive = stabilizes, negative = destabilizes HSF1
recorded_metric: ΔTm at 25 µM (°C)

**Query** # lookup: ΔTm at 25 µM of "CSc1sc(NC(=O)Nc2cccc(C(F)(F)F)c2)cc1C#N"
**Result** 4.44

**Query** Item: Cc1cc(C(C#N)c2ccc(Cl)cc2)c(Cl)cc1NC(=O)c1cc(I)cc(I)c1O (stereo not drawn)
**Result** -7.95

**Query** Item: "O=C(O)C1=CC(=C(c2ccc(O)c(C(=O)O)c2)c2ccc(O)c(C(=O)O)c2)C=CC1=O"
**Result** -11.5

**Query** Item: "Cc1cc(N)c2ccccc2c1O"
**Result** -4.28

P: O=[N+]([O-])c1cc(NC2=NS(=O)(=O)N=C2Nc2ccc(F)cc2)ccc1Cl
Q: Oc1ccccc1/C=N/NC(=S)Nc1cccc(Cl)c1
R: CCOC(=O)c1c(Cl)c2ccccc2oc1=O
**Query** Returns the items ordered by ΔTm at 25 µM, from maximum to minimum. Record the ranking as a list of labels in the requested order.
**Result** Q, P, R
(Q: 3.44 °C, P: 1.6 °C, R: -9.19 °C)

1: Cc1cccc(NC(=O)Nc2ccc(Cl)c([N+](=O)[O-])c2)c1
2: Cc1cccc(NC(=O)Nc2cccc([N+](=O)[O-])c2)c1
**Query** Endpoint returns whichever of 1 and 2 has the numerically higher ΔTm at 25 µM. Write down the label of the entry you select.
**Result** 1

---

- assay_target: recombinant HSF1 DNA-binding domain (DBD) (Homo sapiens)
- Sequence (Q00613 15-120): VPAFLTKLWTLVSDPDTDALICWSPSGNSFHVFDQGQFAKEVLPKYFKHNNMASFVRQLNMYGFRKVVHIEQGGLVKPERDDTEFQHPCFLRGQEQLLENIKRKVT
- experiment: Differential Scanning Fluorimetry (DSF), HSF1 DBD melting temperature
- experimental_parameters: Table 1; 5 μM HSF1 DBD, 25PM Compound; positive = stabilizes, negative = destabilizes HSF1
recorded_metric: ΔTm at 25 µM (°C)

**Query** # query: ΔTm at 25 µM | item "CC(=O)Nc1cc(NC(=O)Nc2ccc(F)cc2)ccc1Cl" | system: recombinant HSF1 DNA-binding domain (DBD) (Homo sapiens)
**Result** 0.67

A: CN(C(=O)Nc1ccc(Cl)c([N+](=O)[O-])c1)c1ccc(F)cc1
B: CCOC(=O)N1CCN(C2=Nc3cc(Cl)ccc3C(C)C2)CC1 (centres unmarked)
C: CC(C)(C)c1ccc(NC(=O)Nc2ccc(Cl)c([N+](=O)[O-])c2)cc1
**Query** Order the records, beginning with the lowest ΔTm at 25 µM and ending with the highest. Record the ranking as a list of labels in the requested order.
**Result** B, A, C
(B: -9.07 °C, A: 0.67 °C, C: 3.2 °C)

A: O=C(Nc1ccc(F)cc1)Nc1ccc(Cl)nc1
B: O=c1c(Nc2ccc(F)cc2)c(Nc2ccc(Cl)c(C(F)(F)F)c2)c1=O
**Query** Endpoint returns whichever of A and B has the numerically higher ΔTm at 25 µM. Write down the label of the entry you select.
**Result** B
(B: 2.3 °C, A: 0.67 °C)

---

- assay_target: recombinant HSF1 DNA-binding domain (DBD) (Homo sapiens, UniProt Q00613)
- Sequence (Q00613 15-120): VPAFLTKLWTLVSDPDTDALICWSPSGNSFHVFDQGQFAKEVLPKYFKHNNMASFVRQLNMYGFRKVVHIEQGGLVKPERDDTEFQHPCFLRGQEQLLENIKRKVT
- experiment: Differential Scanning Fluorimetry (DSF), HSF1 DBD melting temperature
- experimental_parameters: Table 1; 5 μM HSF1 DBD, 25PM Compound; positive = stabilizes, negative = destabilizes HSF1
recorded_metric: ΔTm at 25 µM (°C)

Consider the worked cases shown below.
**Query** # lookup: ΔTm at 25 µM of N=C(Nc1ccc(F)cc1)Nc1ccc(Cl)c(C(F)(F)F)c1 [Compound 0032]
**Result** 0.75

**Query** Item: Cc1ccc(CNC(=O)CSc2nnc(-c3ccc(C)cc3)n2-c2ccccc2)cc1 [Compound 0025]
**Result** -9.21

**Query** Item: O=C(COc1ccc(Cl)cc1Cl)N/N=C/c1c[nH]c2ccccc12 [Compound 0098]
**Result** 4.93

**Query** Item: Cc1c2oc3c(C)c(O)c(I)cc3c(-c3c(Cl)c(Cl)c(Cl)c(Cl)c3C(=O)O)c-2cc(I)c1=O [Compound 0100]
**Result** -7.52

**Query** Item: Cc1ccc(NC(=O)Nc2cccc(Cl)c2)cc1 [Compound 0068, 1-(3-chlorophenyl)-3-(p-tolyl)urea]
**Result** 2.75

**Query** Item: CCOC(=O)c1cc(C#N)c(Sc2nnc(SC)s2)nc1C(F)(F)F [Compound 0055]
**Result** -9.69

P: O=C(N/N=C/c1ccc(Br)s1)c1[nH]cc2ccccc12 [Compound 0069]
Q: CSc1nnc(SC2=CC(=O)CC(c3ccccc3)C2)s1 (centres unmarked) [Compound 0031]
**Query** Endpoint returns whichever of P and Q has the numerically higher ΔTm at 25 µM. Write down the label of the entry you select.
**Result** P
(P: 8.06 °C, Q: -6.23 °C)

a: Cc1cccc(NC(=O)Nc2cccc(Cl)c2)c1 [Compound 0063, 1-(3-chlorophenyl)-3-(m-tolyl)urea]
b: c1ccc(-c2ccc(C(c3ccccc3)n3ccnc3)cc2)cc1 (centres unmarked) [Compound 0081]
**Query** Endpoint returns whichever of a and b has the numerically higher ΔTm at 25 µM. Write down the label of the entry you select.
**Result** a
(a: 2.5 °C, b: -3.6 °C)

---

- assay_target: recombinant HSF1 DNA-binding domain (DBD) (Homo sapiens)
- experiment: Differential Scanning Fluorimetry (DSF), HSF1 DBD melting temperature
- experimental_parameters: Table 1; 5 μM HSF1 DBD, 25PM Compound; positive = stabilizes, negative = destabilizes HSF1
recorded_metric: ΔTm at 25 µM (°C)

**Query** # lookup: ΔTm at 25 µM of "O=C(Nc1ccc(F)cc1)Nc1ccc(Cl)c([N+](=O)[O-])c1"
**Result** 3

**Query** Item: "O=C(Nc1ccc(F)cc1)Nc1ccc(Br)c(C(F)(F)F)c1"
**Result** 5.1

**Query** Item: "Cc1ccc(NC(=O)Nc2ccc(Cl)c([N+](=O)[O-])c2)cc1"
**Result** 4.3

**Query** Item: "O=C(Nc1ccc(Cl)cc1)Nc1cccc(Cl)c1"
**Result** 3

**Query** Item: "COc1ccc(CSc2ccc([N+](=O)[O-])c3nonc23)cc1"
**Result** -5.73

**Query** Item: "Cc1ccc(/C=N/NC(=O)c2c[nH]c3ccccc23)s1"
**Result** 3.9

I: O=C(Nc1cccc(C(F)(F)F)c1)Nc1ccc2nonc2c1
II: O=C(Nc1ccc(Cl)cc1)Nc1cccc([N+](=O)[O-])c1
III: O=C(CSc1nnc(-c2ccncc2)n1-c1ccccc1)N/N=C/c1cccnc1
IV: O=C(Nc1ccc(F)cc1)Nc1cccc(C(F)(F)F)c1
V: CC(=O)NC1C(O)OC(OS(=O)(=O)O)C(O)C1OC1CC(C(=O)O)C(O)C(O)C1O (stereo not shown)
**Query** Returns the items ordered by ΔTm at 25 µM, from maximum to minimum. Record the ranking as a list of labels in the requested order.
**Result** I, II, IV, V, III
(I: 6.44 °C, II: 3.11 °C, IV: 1.78 °C, V: -3.11 °C, III: -8.96 °C)

1: O=C(Nc1cccnc1)c1cc2c(s1)-c1ccccc1CC2
2: O=C(Nc1ccc(F)cc1)Nc1ccc(Cl)cc1
**Query** Min ΔTm at 25 µM? 1 | 2 Write down the label of the entry you select.
**Result** 1
(1: -9.69 °C, 2: 2.61 °C)

P: O=C(Nc1ccc(Cl)cc1)Nc1csc([N+](=O)[O-])c1
Q: O=C(CSc1nnc(-c2ccccc2)n1-c1ccc(F)cc1)NCc1ccccc1
**Query** Min ΔTm at 25 µM? P | Q Write down the label of the entry you select.
**Result** Q
(Q: -10.5 °C, P: 4.1 °C)

Source of measurements: patent US20240317727A1
